Biological target: rat VR1 (Rattus norvegicus, UniProt O35433)
Construct: expressed in transfected cells
Sequence (O35433 whole entry): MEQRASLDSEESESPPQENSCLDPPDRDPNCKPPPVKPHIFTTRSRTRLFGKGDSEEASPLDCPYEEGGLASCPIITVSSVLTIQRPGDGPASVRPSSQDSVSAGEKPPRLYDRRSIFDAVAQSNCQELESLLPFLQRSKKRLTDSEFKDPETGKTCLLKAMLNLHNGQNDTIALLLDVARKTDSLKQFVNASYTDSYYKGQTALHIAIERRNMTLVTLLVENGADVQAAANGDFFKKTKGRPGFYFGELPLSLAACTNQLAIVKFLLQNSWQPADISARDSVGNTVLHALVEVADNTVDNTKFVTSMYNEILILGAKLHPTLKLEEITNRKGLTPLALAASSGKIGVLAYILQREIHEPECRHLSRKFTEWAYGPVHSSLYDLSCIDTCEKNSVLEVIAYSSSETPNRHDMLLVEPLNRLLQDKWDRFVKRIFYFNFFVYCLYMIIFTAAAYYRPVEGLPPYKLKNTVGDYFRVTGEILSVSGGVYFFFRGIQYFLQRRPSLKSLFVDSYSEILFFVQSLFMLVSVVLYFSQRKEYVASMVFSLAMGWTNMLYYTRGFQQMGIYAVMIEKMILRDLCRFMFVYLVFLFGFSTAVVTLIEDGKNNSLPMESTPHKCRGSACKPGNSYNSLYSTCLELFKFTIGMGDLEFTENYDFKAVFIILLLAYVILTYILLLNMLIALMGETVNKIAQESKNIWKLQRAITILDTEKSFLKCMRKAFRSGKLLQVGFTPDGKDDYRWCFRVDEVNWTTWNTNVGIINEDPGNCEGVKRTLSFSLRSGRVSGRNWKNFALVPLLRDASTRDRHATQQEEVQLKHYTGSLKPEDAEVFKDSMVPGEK
Experiment: [3H]resiniferatoxin (RTX) competition binding assay, VR1-transfected CHO cells
Kindly supply the reported pKi values for the records listed here.
Give bare numbers, as −log10 of the molar value.

Reported pKi for C[C@H](NC(=S)NCc1ccc(C(C)(C)C)cc1)c1ccc(NS(C)(=O)=O)c(F)c1 was 5.59

Sample CC(C(=O)NCc1ccc(Cl)c(Cl)c1)c1ccc(NS(C)(=O)=O)c(Br)c1 (centres unmarked) ; pKi observed: 6.65

For every item in the list below, what is its measured pKi?
1. CC(NC(=S)NCC(COC(=O)C(C)(C)C)Cc1ccc(C(C)(C)C)cc1)c1ccc(NS(C)(=O)=O)cc1 (centres unmarked)
2. COc1cc(C2(C(=O)NCCCc3ccc(C)c(C)c3)CC2)ccc1NS(C)(=O)=O
3. CC(C(=O)NCc1ccc(C(C)(C)C)cc1)c1ccc(NS(C)(=O)=O)c(F)c1 (centres unmarked)
4. Cc1ccc(CC(CNC(=S)N[C@H](C)c2ccc(NS(C)(=O)=O)cc2)COC(=O)C(C)(C)C)cc1C (some centres unmarked)
5. Cc1ccc(CCCNC(=O)C(C)(C)c2ccc(NS(C)(=O)=O)cc2)cc1C
6. C[C@@H](NC(=S)NCC(COC(=O)C(C)(C)C)Cc1ccc(C(C)(C)C)cc1)c1ccc(NS(C)(=O)=O)cc1 (some centres unmarked)

Resp:
1: 7.37; 2: 5.77; 3: 7.23; 4: 8.21; 5: 5.77; 6: 8.00

----------
reported-endpoint: melting point

The recorded melting point for entry COc1cc(C(C)C(=O)NCC(COC(=O)C(C)(C)C)Cc2ccc(C)c(C)c2)ccc1NS(C)(=O)=O (centres unmarked) equals 54 to 57 °C

Per the records, this compound ( Cc1ccc(C(C)CC(=O)NC(C)c2ccc(NS(C)(=O)=O)c(F)c2)cc1C (centres unmarked) ) has melting point equal to 152 to 154 °C

Hey, can you go through the list below and give me melting point for every item?
1. C[C@H](C(=O)NC[C@@H](COC(=O)C(C)(C)C)Cc1ccc(C(C)(C)C)cc1)c1ccc(NS(C)(=O)=O)c(Cl)c1
2. C[C@H](C(=O)N[C@H](COC(=O)C(C)(C)C)Cc1ccccc1)c1ccc(NS(C)(=O)=O)c(F)c1
3. CC(C)c1ccc(CNC(=O)C(C)c2ccc(NS(C)(=O)=O)c(F)c2)cc1 (centres unmarked)
4. CC(C(=O)NCc1ccc(Cl)cc1)c1ccc(NS(C)(=O)=O)c(Br)c1 (centres unmarked)

Resp:
1: 55 to 57 °C; 2: 125 to 126 °C; 3: 137 to 139 °C; 4: 147 °C

Report melting point for every entry below.
1. Cc1ccc(CCCNC(=O)C(C)(C)c2ccc(NS(C)(=O)=O)cc2)cc1C
2. CC(NC(=O)C=Cc1ccc(C(C)(C)C)cc1)c1ccc(NS(C)(=O)=O)c(F)c1 (centres unmarked)

Resp:
138 to 139 °C
154 to 156 °C

----------
Target: rat VR1 (Rattus norvegicus, UniProt O35433)
Construct: expressed in transfected cells
Test: 45Ca2+-uptake assay in CHO/VR1 cells, antagonism of capsaicin-stimulated uptake
Assay type: cell-based
Details: 45Ca2+ uptake stimulated by 50 nM capsaicin
We label by threshold. Values of Ki strictly beneath 300 nM are Satisfied. Values of 300 nM and up are Not satisfied.

Req: Determine whether this compound shows Ki lower than 300 nM (ties excluded): COc1cc(C(C)NC(=S)NCc2ccc(C(C)(C)C)cc2)ccc1NS(C)(=O)=O (stereo not shown)
Resp: Satisfied

Req: Confirm or reject: Ki of C[C@@H](NC(=S)NC[C@@H](COC(=O)C(C)(C)C)Cc1ccccc1)c1ccc(NS(C)(=O)=O)cc1 lies strictly below 300 nM
Resp: Satisfied

Req: Would you kindly verify if Ki of CC(C)c1ccc(CNC(=O)C(C)c2ccc(NS(C)(=O)=O)c(F)c2)cc1 (stereo not shown) is strictly less than 300 nM?
Resp: Satisfied

***
Req: Lab log: compare recorded Ki with 300 nM; is it strictly lower for CC(C(=O)NCc1ccc(C(C)(C)C)cc1)c1ccc(NS(C)(=O)=O)cc1F (stereo not shown) ?
Resp: Satisfied

Req: Does the reported Ki of the following compound sit strictly below 300 nM? CC(NC(=O)Cc1ccc(C(C)(C)C)cc1)c1ccc(NS(C)(=O)=O)c(F)c1 (stereo not shown)
Resp: Not satisfied

Req: Strictly below 300 nM in Ki? Cc1ccc(CCCNC(=O)C2(c3ccc(NS(C)(=O)=O)cc3)CC2)cc1C
Resp: Not satisfied

These entries and their values trace back to patent US8642657B2.
